Parameter measured: melting point (°C)
Your answer is read as °C, so omit the unit and give the number.

C=C(Cl)c1ccccc1 ... -23
Cn1nnc2c1ccc(=O)n2C1OC(CO)C(O)C1O (stereo not drawn) ... 211
Oc1ccc(C2CCCC2)cc1 ... 65

QUERY: Give me measured melting point, please, for this compound: CCOc1cccc2c(=O)c(=O)c12
RESULT: 128

QUERY: Entry CCOc1ccc(-c2nnc3n2NC(c2ccc(N(C)C)cc2)S3)cc1 (stereo not drawn) needs its melting point filled in; supply it.
RESULT: 137

QUERY: Output melting point of CC1CCC(C)(C(=O)CN(C)C(=S)Nc2ccccc2)C1(C)C (stereo not drawn)
RESULT: 147

QUERY: Identify measured melting point corresponding to CC(=O)Nc1ccccc1CCN(CCc1ccccc1NC(C)=O)N=O
RESULT: 172

QUERY: Indicate its recorded melting point; the compound in question is CC(C)C=CC(=O)O
RESULT: 35

---

Below, each entry is listed with its recorded melting point.
Answer in °C, number only, no unit symbol.

O=P(OC(CCl)CCl)(OC(CCl)CCl)OC(CCl)CCl ... 27
COc1c(F)ccc(C(N)=O)c1F ... 112
O=C(O)c1ccc(Br)c(F)c1 ... 212
COC(=O)c1sccc1S(=O)(=O)NC(=O)Nc1nc(C)nc(OC)n1 ... 176

Okay, now this molecule:
QUERY: Tell me measured melting point for CCCC(=O)Nc1ccccc1 please.
RESULT: 97

---

Parameter measured: melting point (°C)
State the answer as a number, implicitly in °C.

Here is how some molecules turned out for melting point.
CCCCCCCCc1ccc(NC(=O)c2ccc(OC)cc2)cc1 ... 132
C=C(C)CCCCCCCC ... -51
CCCCCCCCCCCCOc1ccc(C=O)cc1 ... 28

QUERY: Report melting point for O=C1OC(c2ccccc2)=NC1=Cc1ccc(-c2ccc([N+](=O)[O-])cc2)o1
RESULT: 208

QUERY: For the molecule C1OC1C1CO1 (configuration not stated) , give its reported melting point.
RESULT: 4

QUERY: Assign melting point to the following record: N#Cc1c(C(F)(F)F)cc(-c2cccs2)n(N)c1=O
RESULT: 234

QUERY: Note melting point for the molecule shown: Clc1ccc2c(c1)Oc1cc(Cl)ccc1O2
RESULT: 151

QUERY: Using the record for CCCCCSC , state its measured melting point.
RESULT: -94

QUERY: Fill in reported melting point for this entry: COc1ccc(C)cc1N
RESULT: 53

QUERY: Dear colleague, please send me the reported melting point for COC(=O)c1c(C)c(Br)c(OC)c(Br)c1OC when you can.
RESULT: 60

QUERY: Give the value of melting point reported for the following: NNC(=O)c1cccs1
RESULT: 139

---

Quick rule: melting point of at least 100 °C means True, below that means False.

Reference set, count: 5
Nc1c(C(=O)O)ccc2c1C(=O)c1ccccc1C2=O ... True
CC1CCC(C)(C(=O)N(C(=O)C2(C)CCC(C)C2(C)C)c2ccccc2)C1(C)C (stereo not drawn) ... True
COc1cc(C2Nn3c(nnc3-c3ccc([N+](=O)[O-])cc3)S2)ccc1O (stereo not drawn) ... True
COc1cc2cc(c1Cl)N(C)C(=O)CC(OC(=O)C(C)N(C)C(C)=O)C1(C)OC1C(C)C1CC(O)(NC(=O)O1)C(OC)C=CC=C(C)C2 (stereo not drawn) ... True
CC/C(=C(/CC)c1ccc(O)cc1)c1ccc(O)cc1 ... True

--- query ---
QUERY: # bool: melting point of O=C(CBr)Oc1ccc([N+](=O)[O-])cc1 >= 100 °C
RESULT: False

---

Parameter measured: melting point (°C)
Please respond with the number in °C and leave the unit unwritten.

C=C1C(=O)OC2CC(C)C3C=CC(=O)C3(C)C(O)C12 (configuration not stated) ... 168
CC(C)CCCCCOC(=O)c1ccccc1C(=O)OCCCCCC(C)C ... -4

QUERY: Quick one: give measured melting point for CCS(=O)(=O)Oc1ccc2c(c1)C(C)(C)CO2
RESULT: 30

QUERY: State its melting point for this compound: COC(=O)CCC(C)C1CCC2C3CCC4CC(OC(C)=O)CCC4(C)C3CC(OC(C)=O)C12C (configuration not stated)
RESULT: 116

QUERY: Complete the entry with melting point for CCC1(c2ccccc2)C(=O)NC(=O)N(C)C1=O (configuration not stated)
RESULT: 176

QUERY: Read the entry C=CC1CNC(=S)O1 (configuration not stated) and write its reported melting point.
RESULT: 50

QUERY: Name the recorded melting point of the compound listed here: NS(=O)(=O)c1ccc(C(F)(F)F)cc1
RESULT: 180

---

Each entry below lists one item and its recorded melting point value.
Quick reminder: number only, in °C, skip the unit.

Worked cases, answers included:
O=C(Oc1ccccc1)c1ccc(C(=O)Oc2ccccc2)cc1 ... 197
CCCCN(CCCC)c1ccccc1 ... -32.2
O=C=Nc1ccc(Br)cc1 ... 41

The record that follows has no melting point shown yet.
QUERY: Provide measured melting point value, entry: Cc1nc(Br)ccc1Br
RESULT: 38

---

The entries below come with measured melting point values attached.
All answers are understood in °C, so give the number only.

CC(=O)Oc1ccc(Cl)cc1 ... 9
CCCCCC(C=O)=Cc1ccccc1 ... 80
CCOC(=O)C1=C(CBr)NC(=O)NC1C (stereo not drawn) ... 148
CCOC(=O)CNc1cc(Cl)c([N+](=O)[O-])cc1[N+](=O)[O-] ... 146

QUERY: # return recorded melting point for entry BrCC(Br)(Br)Br
RESULT: 0

QUERY: Given the molecule C#CCCCC#C , write its reported melting point.
RESULT: -85

QUERY: Tell me melting point reported for CCc1cccc(C(C)=O)c1
RESULT: -20

QUERY: Report measured melting point; entry is CC(C)(Oc1ccc(Cl)cc1)C(=O)NC(=O)NCN1CCOCC1
RESULT: 100

QUERY: For the molecule CN(C)CCc1ccc(O)cc1 , give its measured melting point value.
RESULT: 118

QUERY: Tell us which melting point value is on record for Cc1cc([N+]([O-])=Nc2ccccc2)ccc1[N+]([O-])=Nc1ccccc1
RESULT: 100

---

Define the label as YES when melting point is strictly less than 100 °C and as NO in all remaining cases.

Consider the worked cases shown below.
OCc1cc(-c2ccco2)[nH]n1 ... NO
CNC(=O)ON=C(C)C(C)SC (configuration not stated) ... YES
CCOC(=O)Cc1cc(CC(=O)OCC)c(NC(=O)OCC)cc1NC(=O)OCC ... NO
CC1(C)CCC(=Cc2ccc(Cl)cc2)C1(O)Cn1cncn1 (configuration not stated) ... NO
Cc1n[nH]c(C)c1C(C)(C)C ... NO

QUERY: hey, is melting point for CCCCCCCCc1ccc(C(Cl)=Cc2ccc(OCC)cc2)cc1 lower than 100 °C or not?
RESULT: YES

---

Entries and their measured melting point follow.
Just the number please, in °C, no unit attached.

Solved entries (count: 5):
O=Cc1c([N+](=O)[O-])cccc1[N+](=O)[O-] ... 119
N#CCc1ccc(C(F)(F)F)cc1[N+](=O)[O-] ... 40
O=C1CCCC1C1(O)C(=O)Nc2ccccc21 (centres undefined) ... 187
COc1ccc2c(c1)C(=O)N(CCc1ccc(S(=O)(=O)NC(=O)NC3CCCCC3)cc1)C(=O)C2(C)C ... 181
C[Si](C)(C)C#Cc1ccc(C#C[Si](C)(C)C)cc1 ... 120

QUERY: Give the reported value of melting point for this record: CC(C(=O)O)c1ccc(N2CC=CC2)c(Cl)c1 (centres undefined)
RESULT: 99

QUERY: Indicate its recorded melting point; the molecule in question is O=C(O)C(F)(F)C(F)(F)C(F)(F)C(F)(F)C(F)(F)C(F)(F)C(F)(F)C(F)(F)C(F)(F)C(F)(F)C(F)(F)C(F)(F)C(F)(F)F
RESULT: 130

QUERY: For the molecule CCN(Cc1ccccc1)c1ccccc1 , report melting point.
RESULT: 35

QUERY: Consider the molecule Cc1oncc1C(=O)O and give its recorded melting point.
RESULT: 147

QUERY: Assign melting point to the following record: CC=CC=CC=CC=O
RESULT: 56.8

QUERY: // Input: CCCC(C)(O)C#CC(C)(O)CCC (centres undefined) . Output its melting point only.
RESULT: 68.5

QUERY: # return recorded melting point for entry Clc1cn2ccsc2n1
RESULT: 85

---

Mark Condition met only for melting point values smaller than 100 °C; exact matches and larger values are Condition not met.

Please review the entries below; each comes with its answer.
OCC1OC(n2cnc3cncnc32)C(O)C1O (centres undefined) ... Condition not met
CCCSP(=O)(OCC)SCCC ... Condition met
CCCc1ccccc1O ... Condition met
O=C=Nc1ccccc1[N+](=O)[O-] ... Condition met
CCN1CCN(C(=O)N[C@@H](C(=O)O)c2ccccc2)C(=O)C1=O ... Condition not met

QUERY: Hi there! Is melting point for c1ccc(-c2ccc(-c3cnc(-c4ccc(-c5ccccc5)cc4)o3)cc2)cc1 below 100 °C, do you know?
RESULT: Condition not met

QUERY: Say whether its melting point is strictly beneath 100 °C. Entry: Cc1cc(O)c(C(C)(C)C)cc1C(C)(C)C
RESULT: Condition met

QUERY: Is it true that melting point reported for Oc1ccc(O)c(Cc2ccccc2)c1 is less than 100 °C?
RESULT: Condition not met

QUERY: Please indicate whether the reported melting point of O=C1OC(c2ccccc2)=N/C1=C/c1cc(/C=C2/N=C(c3ccccc3)OC2=O)c([N+](=O)[O-])cc1[N+](=O)[O-] is strictly below 100 °C.
RESULT: Condition not met
